- assay system: Peroxisome proliferator-activated receptor alpha (Homo sapiens) (UniProt Q07869)
- Sequence (Q07869 whole entry, looked up): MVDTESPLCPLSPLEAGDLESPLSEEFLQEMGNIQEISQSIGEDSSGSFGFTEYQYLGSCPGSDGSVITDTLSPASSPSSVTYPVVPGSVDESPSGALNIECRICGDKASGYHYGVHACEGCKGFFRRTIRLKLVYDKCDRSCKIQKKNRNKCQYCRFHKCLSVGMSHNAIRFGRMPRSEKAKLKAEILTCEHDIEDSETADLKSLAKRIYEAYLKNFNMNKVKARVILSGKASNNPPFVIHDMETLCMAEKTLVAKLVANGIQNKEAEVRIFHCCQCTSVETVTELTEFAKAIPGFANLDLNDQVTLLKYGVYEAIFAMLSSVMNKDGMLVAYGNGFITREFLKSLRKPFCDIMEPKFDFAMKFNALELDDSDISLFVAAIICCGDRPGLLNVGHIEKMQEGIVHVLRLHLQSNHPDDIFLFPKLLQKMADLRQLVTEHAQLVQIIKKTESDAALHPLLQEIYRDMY
- assay procedure: qHTS assay for small molecule agonists of the peroxisome proliferator-activated receptor alpha (PPARalpha) signaling pathway (AID 651778); also: % of control where 0% means no effect
- measurement parameters: PathHunter PPARalpha complementation, chemiluminescence, 6 h; stronger effect = higher value
Parameter: max response. Scope: all listed entries.
Quick reminder: number only, in %, skip the unit.

compound | assay system | max response [%]
CCOc1ccc(NC(C)=O)cc1N | Peroxisome proliferator-activated receptor alpha (Homo sapiens) (UniProt Q07869) | -2.02
COC(=O)CCCC(=O)OC | Peroxisome proliferator-activated receptor alpha (Homo sapiens) (UniProt Q07869) | -1.53
O=[N+]([O-])c1ccc(Cl)cc1Cl | Peroxisome proliferator-activated receptor alpha (Homo sapiens) (UniProt Q07869) | -1.04
C(=C/c1ccccc1)/c1ccccc1 | Peroxisome proliferator-activated receptor alpha (Homo sapiens) (UniProt Q07869) | 5.49
O=[N+]([O-])c1cc(C(F)(F)F)ccc1Cl | Peroxisome proliferator-activated receptor alpha (Homo sapiens) (UniProt Q07869) | 0.399
O=C(O)c1ccc(Cl)c(Cl)c1 | Peroxisome proliferator-activated receptor alpha (Homo sapiens) (UniProt Q07869) | -5.43
OCCO | Peroxisome proliferator-activated receptor alpha (Homo sapiens) (UniProt Q07869) | -4.04
CCC(=O)/C=C/C1C(C)=CCCC1(C)C (stereo unspecified) | Peroxisome proliferator-activated receptor alpha (Homo sapiens) (UniProt Q07869) | 0.561
CO[Si](CCCNCCC[Si](OC)(OC)OC)(OC)OC | Peroxisome proliferator-activated receptor alpha (Homo sapiens) (UniProt Q07869) | -5.87
CCCCCCO | Peroxisome proliferator-activated receptor alpha (Homo sapiens) (UniProt Q07869) | 6.04

Next up:
Please state recorded max response (tested on Peroxisome proliferator-activated receptor alpha (Homo sapiens) (UniProt Q07869)) of `O=C1OC(=O)c2cc([N+](=O)[O-])ccc21`
-4.48

* * *

Parameter: max response. Scope: all listed entries.
- assay procedure: qHTS assay for small molecule agonists of the antioxidant response element (ARE) signaling pathway measured by Nrf2-dependant transcriptional activity - cell viability counter screen (AID 720653); also: % is scaled to controls: 0 for no effect and ±100 for the full control effect
- measurement parameters: ARE-bla HepG2 viability, CellTiter-Glo ATP luminescence, 16 h; stronger effect = lower value
Records with an inconclusive call do not appear.
Quick reminder: number only, in %, skip the unit.

molecule | max response, %
CC(C)=C1CCC(C)CC1=O (stereo unspecified) | 3.25
Cc1ccc(C)c([N+](=O)[O-])c1 | -4.07

What value of measured max response is listed for `Cc1cccc(C(=O)O)c1[N+](=O)[O-]` ?
5.5

* * *

- assay procedure: MultiTox-Fluor Cytotoxicity Assay - LYMP1-002 - Dead Cells (AID 960);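 also: cells exposed to compound for 16 h at 37 °C; 0% = DMSO and 100% = tetraoctylammonium bromide; nearly all actives have a fitted effect of over 60% in size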
- measurement parameters: LYMP1-002 lymphoblastoid cells, dead-cell protease fluorescence; series mostly up to 46.1 µM
Records with an inconclusive call do not appear. Activity calls are given as the source filed them. The call rests on the fitted dose curve; in most records, active means well fitted cell-killing curve with a large enough effect; inconclusive means small, poorly fitted or top-dose-only effect, or effect the other way; inactive means no such curve, though single readings can be large or run the other way.
experimental readout: outcome

compound | outcome
Cc1ccc(C#N)cc1 | inactive
CC(=O)CC(C)C | inactive
N#Cc1ccccc1 | inactive
CCC(C)(C)OC | inactive
O=Cc1ccccc1Cl | inactive

What value of measured outcome is listed for `O=[N+]([O-])c1ccc(CCO)cc1` ?
inactive

What value of measured outcome is listed for CC(C)(c1cc(Br)c(OCC(Br)CBr)c(Br)c1)c1cc(Br)c(OCC(Br)CBr)c(Br)c1 (stereo not drawn) ?
inactive

What value of measured outcome is listed for `Fc1ccccc1` ?
inactive

Source listed as PubChem BioAssay (NCATS).
